system: Plasmodium falciparum: 3D7 strain; experiment: P. falciparum 3D7 asexual blood stage assay (SYBR green readout); assay type: cell-based; conditions: P. falciparum 3D7 in human erythrocytes, 72 h incubation, SYBR green fluorescence; hydrochloride
pIC50: −log10 of the molar value. Counter-ions that a name gives are not always drawn.
Endpoint Label: pIC50

C[C@H]1C[C@@H](N2C(=N)N[C@](C)(c3cccc(-c4cccc(C(O)C(F)F)c4)c3Cl)CC2=O)CCO1 (single isomer, unassigned) [Example 26, hydrochloride]; 7.26

----------
test system: Plasmodium falciparum: 3D7 strain; test: P. falciparum 3D7 asexual blood stage assay (SYBR green readout); type: cell-based; conditions: Plasmodium falciparum, 3D7, Erythrocyte, 72 h, P. falciparum 3D7 in human erythrocytes, 72 h incubation, SYBR green fluorescence
pIC50: −log10 of the molar value. Where a name gives a salt, the structure may show the parent alone.
Endpoint Label: pIC50

C[C@@H]1C[C@H](N2C(=N)N[C@](C)(c3cccc(-c4ccc(F)cc4F)c3Cl)CC2=O)CCN1C (relative stereo) [Example 107, hydrochloride]; 6.64
C[C@@H]1C[C@H](N2C(=N)N[C@](C)(c3cccc(-c4ccc(F)cc4F)c3Cl)CC2=O)CCS1(=O)=O (relative stereo) [Example 63, hydrochloride]; 7.13
C[C@@]1(c2cccc(-c3cccc(Cl)c3)c2Cl)CC(=O)N([C@H]2CCOC[C@@H]2O)C(=N)N1 (relative stereo) [Example 95, hydrochloride]; 6.49
C[C@H]1C[C@@H](N2C(=N)N[C@](C)(c3cccc(-c4ccc(F)cc4F)c3Cl)CC2=O)CCN1 (relative stereo) [Example 102, hydrochloride]; 6.30
COc1ccc(-c2cccc([C@]3(C)CC(=O)N([C@H]4CCO[C@@H](C)C4)C(=N)N3)c2Cl)cn1 [Example 43, trifluoroacetic acid salt]; 7.03
C[C@H]1C[C@@H](N2C(=N)N[C@](C)(c3cccc(-c4cn(Cc5ccncc5)nn4)c3Cl)CC2=O)CCO1 [Example 120, trifluoroacetic acid salt]; 6.29
C[C@@]1(c2cccc(-c3cnn(CC(F)(F)F)c3)c2Cl)CC(=O)N([C@H]2CCC(F)(F)[C@@H](O)C2)C(=N)N1 (relative stereo) [Example 85, hydrochloride]; 5.57
C[C@H]1C[C@@H](N2C(=N)N[C@](C)(c3cccc(-c4cccc(C(O)C(F)(F)F)c4)c3Cl)CC2=O)CCO1 (single isomer, unassigned) [Example 28, hydrochloride]; 7.59
C[C@H]1C[C@@H](N2C(=N)N[C@](C)(c3cccc(-c4ccccc4C(F)(F)F)c3Cl)CC2=O)CCO1 [Example 37, trifluoroacetic acid salt]; 7.17
C[C@H]1C[C@@H](N2C(=N)N[C@](C)(c3cccc(-c4cncc(Cl)c4)c3Cl)CC2=O)CCO1 [Example 1, hydrochloride]; 7.66
C[C@H]1C[C@@H](N2C(=N)N[C@](C)(c3cccc(-c4cn(Cc5cccnc5)nn4)c3Cl)CC2=O)CCO1 [Example 117, trifluoroacetic acid salt]; 6.43
C[C@H]1C[C@@H](N2C(=N)N[C@](C)(c3cccc(-c4ccc(F)cc4F)c3Cl)CC2=O)CCS1(=O)=O (relative stereo) [Example 64, hydrochloride]; 6.68
C[C@@H]1C[C@H](N2C(=N)N[C@](C)(c3cccc(-c4ccc(Cl)cn4)c3Cl)CC2=O)CCS1(=O)=O (relative stereo) [Example 74, hydrochloride]; 7.23
CO[C@H]1C[C@@H](N2C(=N)N[C@](C)(c3cccc(-c4ccc(S(C)(=O)=O)cc4F)c3Cl)CC2=O)CCC1(F)F (relative stereo) [Example 10, hydrochloride]; 8.22
C[C@H]1C[C@@H](N2C(=N)N[C@](C)(c3cccc(-c4cccnc4)c3Cl)CC2=O)CCO1 [Example 49, trifluoroacetic acid salt]; 7.52
C[C@H]1C[C@H](N2C(=N)N[C@](C)(c3cccc(-c4ccc(Cl)cn4)c3Cl)CC2=O)CCS1(=O)=O (relative stereo) [Example 76, hydrochloride]; 5.61
C[C@H]1C[C@@H](N2C(=N)N[C@](C)(c3cccc(-c4ccc(OC(F)F)nc4)c3Cl)CC2=O)CCS1(=O)=O (relative stereo) [Example 71, hydrochloride]; 6.82
C[C@H]1C[C@@H](N2C(=N)N[C@](C)(c3cccc(-c4cn(C5CCC5)nn4)c3Cl)CC2=O)CCO1 [Example 122, trifluoroacetic acid salt]; 7.00
C[C@H]1C[C@@H](N2C(=N)N[C@](C)(c3cccc(-c4cn(-c5cccc(F)c5)nn4)c3Cl)CC2=O)CCO1 [Example 111, hydrochloride]; 7.18
C[C@H]1C[C@H](N2C(=N)N[C@](C)(c3cccc(-c4ccc(C5CC5)nc4)c3Cl)CC2=O)CCS1(=O)=O (relative stereo) [Example 69, hydrochloride]; 6.59
C[C@@]1(c2cccc(-c3cccc(Cl)c3)c2Cl)CC(=O)N([C@H]2CCC(F)(F)[C@@H](O)C2)C(=N)N1 (relative stereo) [Example 21, trifluoroacetic acid salt]; 6.14
C[C@H]1C[C@@H](N2C(=N)N[C@](C)(c3cccc(-c4cn(CC5CC(F)(F)C5)nn4)c3Cl)CC2=O)CCO1 [Example 116, trifluoroacetic acid salt]; 6.68

----------
Below, each entry is listed with its recorded IC50.
System: Plasmodium falciparum: 3D7 strain
Assay: P. falciparum 3D7 asexual blood stage assay (SYBR green readout)
Format: cell-based
Details: Plasmodium falciparum, 3D7, Erythrocyte, 72 h, P. falciparum 3D7 in human erythrocytes, 72 h incubation, SYBR green fluorescence
Experimental: The compounds of the present invention are potent inhibitors of the growth and propagation of the Plasmodium falciparum parasite in human blood. The assay used to measure the effect of test compounds on a bloodstream stage of Plasmodium falciparum: 3D7 strain employs SYBR green as the readout. […] On day 5, fluorescent signal was measured using a BioTek plate reader (excitation 485 nm, emission 528 nm). […]
Counter-ions that a name gives are not always drawn.
Endpoint Label: IC50 (nM)

C[C@H]1C[C@@H](N2C(=N)N[C@](C)(c3cccc(-c4ccc5ncn(CC(F)(F)F)c5c4)c3Cl)CC2=O)CCO1 [Example 6, hydrochloride]; 26
Cc1cc(-c2cccc([C@]3(C)CC(=O)N([C@H]4CCO[C@@H](C)C4)C(=N)N3)c2Cl)n(C)n1 [Example 52, trifluoroacetic acid salt]; 438
C[C@@H]1C[C@H](N2C(=N)N[C@](C)(c3cccc(-c4ccc(OC(F)F)nc4)c3Cl)CC2=O)CCS1(=O)=O (relative stereo) [Example 70, hydrochloride]; 85
C[C@H]1C[C@@H](N2C(=N)N[C@](C)(c3cccc(-c4cccc(C#N)c4)c3Cl)CC2=O)CCO1 [Example 40, trifluoroacetic acid salt]; 50
C[C@@]1(c2cccc(-c3cccc(Cl)c3)c2Cl)CC(=O)N([C@@H]2CCC(F)(F)[C@H](O)C2)C(=N)N1 (relative stereo) [Example 22, trifluoroacetic acid salt]; 154

----------
test system: Plasmodium falciparum: 3D7 strain; experiment: P. falciparum 3D7 asexual blood stage assay (SYBR green readout); type: cell-based; conditions: Plasmodium falciparum, 3D7, Erythrocyte, 72 h, P. falciparum 3D7 in human erythrocytes, 72 h incubation, SYBR green fluorescence
pIC50: −log10 of the molar value. Where a name gives a salt, the structure may show the parent alone.
# label = Criterion met if pIC50 >= 7 else Criterion not met

C[C@@H]1C[C@@H](N2C(=N)N[C@](C)(c3cccc(-c4ccc(Cl)cn4)c3Cl)CC2=O)CCS1(=O)=O (relative stereo) [Example 77, hydrochloride]; Criterion not met
C[C@@]1(c2cccc(-c3ccc(C4CC4)nc3)c2Cl)CC(=O)N([C@H]2CCC(F)(F)[C@@H](O)C2)C(=N)N1 (relative stereo) [Example 99, hydrochloride]; Criterion not met
C[C@@]1(c2cccc(-c3ccc(F)cc3F)c2Cl)CC(=O)N([C@@H]2CCC(F)(F)[C@H](O)C2)C(=N)N1 (relative stereo) [Example 97, hydrochloride]; Criterion not met
C[C@H]1C[C@@H](N2C(=N)N[C@](C)(c3cccc(-c4cnoc4)c3Cl)CC2=O)CCO1 [Example 54, trifluoroacetic acid salt]; Criterion met
C[C@@H]1C[C@H](N2C(=N)N[C@](C)(c3cccc(-c4cncc(Cl)c4)c3Cl)CC2=O)CC[C@@H]1O (relative stereo) [Example 83, hydrochloride]; Criterion met
Cc1cc(-c2cccc([C@]3(C)CC(=O)N([C@H]4CCO[C@@H](C)C4)C(=N)N3)c2Cl)on1 [Example 32, trifluoroacetic acid salt]; Criterion met
C[C@H]1C[C@@H](N2C(=N)N[C@](C)(c3cccc(-c4ccc(Cl)nc4)c3Cl)CC2=O)CCO1 [Example 55, trifluoroacetic acid salt]; Criterion met
C[C@H]1C[C@@H](N2C(=N)N[C@](C)(c3cccc(-c4cn([C@@H](C)c5cccnc5)nn4)c3Cl)CC2=O)CCO1 [Example 115, trifluoroacetic acid salt]; Criterion not met

----------
test system: Plasmodium falciparum: 3D7 strain; assay: P. falciparum 3D7 asexual blood stage assay (SYBR green readout); assay type: cell-based; details: Plasmodium falciparum, 3D7, Erythrocyte, 72 h, P. falciparum 3D7 in human erythrocytes, 72 h incubation, SYBR green fluorescence
pIC50: −log10 of the molar value. Structures can show the parent of a compound that is named as a salt.
Endpoint Label: pIC50

C[C@H]1C[C@@H](N2C(=N)N[C@](C)(c3cccc(-c4cn(-c5ccncc5)nn4)c3Cl)CC2=O)CCO1 [Example 119, trifluoroacetic acid salt]; 6.53
C[C@H]1C[C@@H](N2C(=N)N[C@](C)(c3cccc(-c4cc5cccnc5n4C)c3Cl)CC2=O)CCO1 [Example 30, trifluoroacetic acid salt]; 6.70
COCCn1cc(-c2cccc([C@]3(C)CC(=O)N([C@H]4CCO[C@@H](C)C4)C(=N)N3)c2Cl)nn1 [Example 123, trifluoroacetic acid salt]; 6.27
